FYI, the data here is from patent US20170233449A1.

Target: human CD38 on cells (human, UniProt P28907 1-300)
Assay: flow cytometry, hybridoma supernatant on RPMI-8226 cells; background MFI average 153
Reported Metric: log10(MFI) (log10 of the value in MFI)

1) R7F11 (rat hybridoma antibody) (antibody, V domains shown, tested as rat hybridoma supernatant; kappa light chain) VH: QIQLVQSGPGLKKPGESVKISCKASGYTFTDYSMHWVKQAPGKGLQWMGWINTYSGKPTYAADFKGRFVFSLEASASTANLQISNLKNEDTATYFCARCYDGTFYYDPMDAWGQGTSVTVSS VL: NIVLTQSPATLSVTPGESVSLSCRASQSIGTSIHWYQQKSNESPRLLIRYASQSISGIPSRFSGSGSGTDFTLSINRVESEDFSIYYCQQSYSSLVTFGSGTKLEIK; 4.08
2) R5E8 (rat hybridoma antibody) (antibody, V domains shown, tested as rat hybridoma supernatant; kappa light chain) VH: EVQLQQSGPEVGRPGSSVKISCKASGYIFTDYIMHWVKQSPGQGLEWIGWIDPEYGSTDYAEKFKKKATLTADTSSSTAYIQLSSLTSEDTATYFCARVAIITTVASGGFAYWGQGTLVTVSS VL: DIVMTQGALPNPVPSGESASITCQSSESLLHSNGKTYLNWYLQRPGQSPQLLIYWMSTRAAGVSDRFSGSGSGTDFTLTISGVEAEDVGVYYCQQFLEYPPTFGSGTKLEIK; 4.03
3) R10B10 (rat hybridoma antibody) (antibody, V domains shown, tested as rat hybridoma supernatant; lambda light chain) VH: QVQLKESGPGLVQPSETLSLTCTVSGFSLTSYGVNWVRQPPGKGLEWMGRIWNDGSIDYNSALKSRLSISRDTSKGQVFLKMNSLQTEDTAIYFCARGPYNNYWYFDFWGPGTMVTVLS VL: GQFTLTQPKSVSGSLRSTITIPCERSSGDIGDNYVSWYQQHLGRPPINVIYADDQRPSEVSDRFSGSIDSSSNSASLTITNLQMDDEADYFCQSYDSNIDIIFGGGTKLTVL; 2.93
4) R7H11 (rat hybridoma antibody) (antibody, V domains shown, tested as rat hybridoma supernatant; lambda light chain) VH: QVQLKESGPGLLLSSETLSLTCTVSGFSLTSYEVSWVRQLPGRGLEWMGRVWIGGDTDYNSDLKSRLSISRDIAKSQVFLKMSNLKTEDTGTYYCARAYGFNYWSFDFWGPGTMVTVSS VL: GQFTLTQPKSVSGSLRSTITIPCERSSGDIGDNYVTWYQQHLGRPPLNVIYADDQRPSEVSDRFSGSIDSSSNSASLTITNLQMDDEADYFCQSYDSNTDIIFGGGTKVTVL; 2.83
5) R5D1 (rat hybridoma antibody) (antibody, V domains shown, tested as rat hybridoma supernatant; kappa light chain) VH: EVQLQQSGPEVGRPGSSVKISCKASGYTFTDYIMHWVKQSPGQGLEWIGWIDPEYGRTDYAEKFKKKATLTADTSSSTAYIQLSSLASEDTATYFCARSAHTTGFGFAYWGQGTLVTVSS VL: DIQMTQSPASLSASLGETVTIECRASEDIYSNLAWYQQKPGNSPQLLIYDANSLADGVPSRFSASGSGTQFSLKINSLRSEDVASYFCQQYNNYPYTFGAGTKLELK; 4.09
6) R10A2 (rat hybridoma antibody) (antibody, V domains shown, tested as rat hybridoma supernatant; kappa light chain) VH: EVQLQQSGPEVGRPGSSVKISCKASGYTFTDSVMNWVKQSPGQGLEWIGWIDPEYGRTDVAEKFKKKATLTADSSSSTAYIYLSGLTSEDTATYFCARTKYNSGYGFPYWGQGSLVTVSS VL: DIVMTQSPTSISISVGERVTMNCKASQNVDSDVDWYQQKTGQSPKLLIYKASNRYTGVPDRFTGSGSGTDFTFTISNMQAEDLAVYYCMQSNTHPRTFGGGTKLELK; 3.65
